test system: CCRF-CEM; experiment: Cytotoxicity against human CEM after 5 days; type: cell-based; settings: ccrf-cem, 120 h
observable: CC50 (µM)
Respond numerically; units are µM and should not be typed.

# input Entry under review: C[C@@]1(OC(=O)c2ccccc2)[C@H](OC(=O)c2ccccc2)[C@@H](COC(=O)c2ccccc2)O[C@H]1n1cnc2c(Cl)nc(NO)nc21 . Reported CC50?
# output 7.3

----------
Hi there, I'd appreciate the recorded CC50 at 120 h for every entry that follows.
experiment: Cytotoxicity against human CEM after 5 days; format: cell-based, CCRF-CEM; details: CEM cells (CCRF-CEM)

# input Entry under review: CCOP(=O)(O)c1nc(N)nc2c1ncn2[C@@H]1O[C@H](CO)[C@@H](O)[C@@]1(C)O . Reported CC50 at 120 h?
# output > 100 µM

# input Entry under review: C[C@@]1(OC(=O)c2ccccc2)[C@H](OC(=O)c2ccccc2)[C@@H](COC(=O)c2ccccc2)O[C@H]1n1cnc2c(N)nc(NO)nc21 . Reported CC50 at 120 h?
# output 27 µM

# input Entry under review: COc1nc(Cl)nc2c1ncn2[C@@H]1O[C@H](CO)[C@@H](O)[C@@]1(C)O . Reported CC50 at 120 h?
# output > 100 µM

# input Entry under review: Cc1nc(N)nc2c1ncn2[C@@H]1O[C@H](CO)[C@@H](O)[C@@]1(C)O . Reported CC50 at 120 h?
# output 13 µM

# input Entry under review: C[C@@]1(O)[C@H](O)[C@@H](CO)O[C@H]1n1cnc2c(=N)n(N)[nH]c(=O)c21 . Reported CC50 at 120 h?
# output > 100 µM

# input Entry under review: CCOP(=O)(OCC)c1nc(N)nc2c1ncn2[C@@H]1O[C@H](CO)[C@@H](O)[C@@]1(C)O . Reported CC50 at 120 h?
# output > 100 µM

# input Entry under review: C[C@@]1(O)[C@H](O)[C@@H](CO)O[C@H]1n1cnc2c(N)nc(-n3ccnn3)nc21 . Reported CC50 at 120 h?
# output > 100 µM

# input Entry under review: C[C@@]1(O)[C@H](O)[C@@H](CO)O[C@H]1n1cnc(C(=O)NN)c1/C(N)=N/N . Reported CC50 at 120 h?
# output > 100 µM

# input Entry under review: C[C@@]1(O)[C@H](O)[C@@H](CO)O[C@H]1n1cnc2c1nc(N)n1nc(-c3ccco3)nc21 . Reported CC50 at 120 h?
# output > 100 µM

----------
system: Huh-7; experiment: Cytotoxicity against human HuH7 cells assessed as rRNA level at 10 uM; format: cell-based; settings: huh-7, 10 µM
observable: Activity (%)
Respond numerically; units are % and should not be typed.

# input API: value(readout=Activity, system=Huh-7) for record Cc1nc(N)nc2c1ncn2[C@@H]1O[C@H](CO)[C@@H](O)[C@@]1(C)O
# output 0

# input API: value(readout=Activity, system=Huh-7) for record Cc1nc2c3ncn([C@@H]4O[C@H](CO)[C@@H](O)[C@@]4(C)O)c3nc(N)n2n1
# output 0

# input API: value(readout=Activity, system=Huh-7) for record C[C@@]1(O)[C@H](O)[C@@H](CO)O[C@H]1n1cnc(C(=O)NN)c1/C(N)=N/N
# output 9

# input API: value(readout=Activity, system=Huh-7) for record C[C@@]1(O)[C@H](O)[C@@H](CO)O[C@H]1n1cnc2c(=O)[nH]nc(N)c21
# output 0

# input API: value(readout=Activity, system=Huh-7) for record CCOP(=O)(O)c1nc(N)nc2c1ncn2[C@@H]1O[C@H](CO)[C@@H](O)[C@@]1(C)O
# output 15

# input API: value(readout=Activity, system=Huh-7) for record C[C@@]1(O)[C@H](O)[C@@H](CO)O[C@H]1n1cnc2c(N)nc(Cl)nc21
# output 5.8

# input API: value(readout=Activity, system=Huh-7) for record CCOP(=O)(OCC)c1nc(N)nc2c1ncn2[C@@H]1O[C@H](CO)[C@@H](O)[C@@]1(C)O
# output 15

# input API: value(readout=Activity, system=Huh-7) for record C[C@@]1(O)[C@H](O)[C@@H](CO)O[C@H]1n1cnc2c(N)n[nH]c(=O)c21
# output 0

# input API: value(readout=Activity, system=Huh-7) for record CCOC(=O)[C@H](C)NP(=O)(OC[C@H]1O[C@@H](n2cnc3c(C)nc(N)nc32)[C@](C)(O)[C@@H]1O)Oc1ccccc1 (stereo not given in full)
# output 0

# input API: value(readout=Activity, system=Huh-7) for record COc1nc(Cl)nc2c1ncn2[C@@H]1O[C@H](CO)[C@@H](O)[C@@]1(C)O
# output 9.8
